Please respond with reported growth for every item in the list.
Tested on: KM12 colon
Test: NCI-60 one-dose screen, 48 h (100 = growth as untreated, 0 = no growth, -100 = all killed)
Conditions: 10 µM unless noted
The panel holds about 83,000 compounds, 20% with a hit somewhere; the sample as a whole holds those more often.
Respond with the bare value in %.

Consider the molecule CCC(CC)N1C(=O)/C(=c2\sc3n(c2=O)NC2C(N=3)N(CC)C(=O)N2CC)c2ccccc21 (stereo not drawn) and give its measured growth. 11.2

Then `Cc1ccc(S(=O)(=O)N(CC[C@@H]2C[C@H]2c2cc3ccccc3o2)S(=O)(=O)c2ccc(C)cc2)cc1` ? 103

Then `COc1cc(OC)c(S(N)(=O)=O)cc1C(C)=O` ? 104

Then `O=C(NCCn1ccnc1)c1ccc(-c2nc3ccc4[nH]ncc4c3c3c2CCCC3)cc1` ? 26

Then CCc1cccc2c3c(sc12)C(c1ccc(OC)cc1)C(C#N)=C(/N=C/c1ccc(Cl)cc1)O3 (stereo not drawn) ? 22.7

Then `COc1ccc(NCc2cn(-c3ccc(C(=O)O)cc3)nc2-c2cc(C(F)(F)F)cc(C(F)(F)F)c2)cc1` ? 99.8

Then `NS(=O)(=O)c1ccc(Nc2nc(SCC(=O)c3ccc(Cl)cc3)nc3c2CCCC3)cc1` ? 19.6

Then `C=C(C)[C@@H]1CC[C@]2(C(=O)NCCCCCN(CCC#N)CCC#N)CC[C@]3(C)[C@H](CC[C@@H]4[C@@]5(C)CCC(=O)C(C)(C)[C@@H]5CC[C@]43C)[C@@H]12` ? 101

Where these numbers come from: PubChem BioAssay (NCI)
